Each recorded value in this set is attributed to patent US20180002320A1.

- Test system: Puccinia triticina
- assay_text: Wheat Brown Rust (PUCCRT) fungicidal activity
- Assay type: in vivo
- setup_conditions: 72 h, Low Volume (121.5 g/H), 3 Day Curative, read-out: PUCCRT 3DC disease control
- Experimental: Technical grades of materials were dissolved in acetone, which were then mixed with nine volumes of H2O containing 110 ppm Triton X-100. The fungicide solutions were applied onto wheat seedlings using an automated booth sprayer to run-off. All sprayed plants were allowed to air dry prior to further handling. All fungicides were evaluated using the aforementioned method for their activity vs. all target diseases, unless stated otherwise. […]
Kindly supply the reported pest or weed control at 121.5 g/ha values for the records listed here.

q: Query: pest or weed control at 121.5 g/ha; subject: COc1ccnc(C(=O)N[C@H]2CCCC[C@H](OC)[C@@H](OC)[C@H](C)OC2=O)c1OC(C)=O [Compound 27]
a: > 80%

q: Cool, now COc1ccnc(C(=O)N[C@H]2CCCC[C@H](OCC(C)C)[C@@H](OCC(C)C)[C@H](C)OC2=O)c1OCOC(C)=O [Compound 14]
a: < 80%

q: Continue with COc1ccnc(C(=O)N[C@H]2CCCC[C@H](CC3CCCC3)[C@@H](OC)[C@H](C)OC2=O)c1OC(C)=O [Compound 59]
a: > 80%

q: Now try COc1ccnc(C(=O)N[C@H]2CCCC[C@H](Cc3ccccc3)[C@@H](OC(=O)C(C)C)[C@H](C)OC2=O)c1OCOC(C)=O [Compound 60] .
a: > 80%

q: Next record, please: CCOCC(=O)OCOc1c(OC)ccnc1C(=O)N[C@H]1CCCC[C@H](CC2CCCC2)[C@@H](OC(=O)C(C)C)[C@H](C)OC1=O [Compound 55]
a: < 80%

q: Another: COc1ccnc(C(=O)N[C@H]2CCOC[C@H](Cc3ccccc3)[C@@H](OCC(C)C)[C@H](C)OC2=O)c1OCOC(C)=O [Compound 16]
a: < 80%

q: Same for COc1ccnc(C(=O)N[C@H]2COCC[C@H](Cc3ccc(F)cc3)[C@@H](OC(=O)C(C)C)[C@H](C)OC2=O)c1OC(C)=O [Compound 75]
a: > 80%

q: Try this molecule too: CCCO[C@H]1COCC[C@H](NC(=O)c2nccc(OC)c2OCOC(C)=O)C(=O)O[C@@H](C)[C@@H]1Oc1ccccc1 [Compound 41]
a: > 80%

q: And COc1ccnc(C(=O)N[C@H]2CCCC[C@H](OC)[C@@H](OC)[C@H](C)OC2=O)c1OCOC(C)=O [Compound 22] ?
a: > 80%

q: Can you check CCCO[C@@H]1[C@@H](CC2CCCC2)CCCC[C@H](NC(=O)c2nccc(OC)c2OC(C)=O)C(=O)O[C@H]1C [Compound 58] next?
a: < 80%

q: Please give the result for COc1ccnc(C(=O)N[C@H]2COCC[C@H](Cc3ccc(F)cc3)[C@@H](Oc3ccccc3)[C@H](C)OC2=O)c1OC(C)=O [Compound 71] too.
a: > 80%

q: Now try COc1ccc(C[C@H]2CCOC[C@H](NC(=O)c3nccc(OC)c3OCOC(=O)C(C)C)C(=O)O[C@@H](C)[C@@H]2Oc2ccccc2)cc1 [Compound 67] .
a: < 80%

q: Moving on to CC[C@H]1CCOC[C@H](NC(=O)c2nccc(OC)c2OCOC(C)=O)C(=O)O[C@@H](C)[C@@H]1OCC(C)C [Compound 70]
a: > 80%

q: What about this molecule? CCCCO[C@H]1CCOC[C@H](NC(=O)c2nccc(OC)c2OCOC(C)=O)C(=O)O[C@@H](C)[C@@H]1OCc1ccccc1 [Compound 2]
a: > 80%

q: Ok, now COc1ccc(C[C@H]2CCOC[C@H](NC(=O)c3nccc(OC)c3OC(C)=O)C(=O)O[C@@H](C)[C@@H]2Oc2ccccc2)cc1 [Compound 65]
a: < 80%

q: One more molecule: CCCO[C@H]1CCCC[C@H](NC(=O)c2nccc(OC)c2OCOC(C)=O)C(=O)O[C@@H](C)[C@@H]1Oc1ccccc1 [Compound 23]
a: > 80%

q: Lookup COc1ccnc(C(=O)N[C@H]2CCCC[C@H](CC3CCCC3)[C@@H](Oc3ccccc3)[C@H](C)OC2=O)c1OCOC(C)=O [Compound 50]
a: > 80%

q: // next record COc1ccnc(C(=O)N[C@H]2CCCC[C@H](OC)[C@@H](Oc3ccccc3)[C@H](C)OC2=O)c1OCOC(C)=O [Compound 11]
a: > 80%

q: # iterate: CC[C@H]1CCOC[C@H](NC(=O)c2nccc(OC)c2OCOC(C)=O)C(=O)O[C@@H](C)[C@@H]1OC(=O)C1CC1 [Compound 79]
a: > 80%

q: Next record, please: COc1ccnc(C(=O)N[C@H]2CCOC[C@H](OC)[C@@H](Oc3ccccc3)[C@H](C)OC2=O)c1OC(C)=O [Compound 48]
a: > 80%

q: What would you report for COc1ccnc(C(=O)N[C@H]2CCCC[C@H](CC3CCCC3)[C@@H](OC)[C@H](C)OC2=O)c1OCOC(C)=O [Compound 61] ?
a: > 80%

q: // same read-out, input: COc1ccnc(C(=O)N[C@H]2CCCC[C@H](Cc3ccccc3)[C@@H](Oc3ccccc3)[C@H](C)OC2=O)c1OC(C)=O [Compound 64]
a: < 80%

q: Next molecule: COc1ccnc(C(=O)N[C@H]2CCCC[C@H](OCC(C)C)[C@@H](Oc3ccccc3)[C@H](C)OC2=O)c1OCOC(C)=O [Compound 13]
a: > 80%

q: Param item: CCC[C@H]1CCCC[C@H](NC(=O)c2nccc(OC)c2OCOC(C)=O)C(=O)O[C@@H](C)[C@@H]1OCC(C)C [Cmpd 30]
a: < 80%

q: Note, next up: CCCO[C@H]1[C@H](C)OC(=O)[C@@H](NC(=O)c2nccc(OC)c2OCOC(C)=O)CCOC[C@@H]1Oc1ccccc1 [Compound 42]
a: < 80%

q: Also need COc1ccnc(C(=O)N[C@H]2CCOC[C@H](OC)[C@@H](Oc3ccccc3)[C@H](C)OC2=O)c1OCOC(C)=O [Compound 40] , thanks.
a: > 80%
